Target: Polyadenylate-binding protein 1 (Homo sapiens, UniProt P11940)
Sequence (P11940 whole entry): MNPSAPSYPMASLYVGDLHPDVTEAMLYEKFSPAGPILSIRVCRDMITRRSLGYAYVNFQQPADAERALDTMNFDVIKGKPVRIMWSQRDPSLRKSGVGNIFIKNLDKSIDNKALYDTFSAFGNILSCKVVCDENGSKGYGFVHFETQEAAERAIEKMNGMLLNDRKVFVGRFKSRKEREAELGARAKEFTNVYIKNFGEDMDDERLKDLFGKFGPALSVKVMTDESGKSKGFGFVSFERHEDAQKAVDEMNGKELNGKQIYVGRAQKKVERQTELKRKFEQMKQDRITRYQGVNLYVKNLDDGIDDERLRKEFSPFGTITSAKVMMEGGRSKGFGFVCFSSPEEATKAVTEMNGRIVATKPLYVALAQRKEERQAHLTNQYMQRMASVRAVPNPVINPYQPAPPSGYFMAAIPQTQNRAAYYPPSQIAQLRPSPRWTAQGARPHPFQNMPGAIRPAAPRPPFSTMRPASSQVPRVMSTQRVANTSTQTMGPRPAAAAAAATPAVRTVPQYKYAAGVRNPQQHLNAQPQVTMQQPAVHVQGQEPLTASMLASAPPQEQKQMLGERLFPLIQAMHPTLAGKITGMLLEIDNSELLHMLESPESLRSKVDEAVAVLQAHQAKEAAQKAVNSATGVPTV
Test: PABP inhibition in translation initiation, SAR follow-up (AID 435018)
Format: functional
Calls of active or inactive are those of the source.
Could you please pick one outcome from this set? active, inactive

Example cases with answers are listed next.
compound	class assignment
CCn1c(=O)n(CC)c2cc(NC(=O)C(C)c3ccccc3)c(Br)cc21 (centres undefined)	active
O=C(COc1ccc(C=NNC(=O)c2ccccc2O)cc1)Nc1ccccc1	inactive
COc1ccccc1N=C1SC(C(=O)Nc2ccccc2)CC(=O)N1C (centres undefined)	inactive

Would you mind telling me which call this test gave CC(C)(C)c1ccc(C(=O)Nc2cccc3ncccc23)cc1 ? active

----------
Each entry below carries its recorded IC50.
Experiment: cells
Assay type: functional
Activity calls are given as the source filed them.

Here's what some known entries look like.
molecule	IC50
CN1C(=O)NC(=O)/C(=C/c2ccc([N+](=O)[O-])s2)C1=O	23.2 µM (active)
O=C(COC(=O)CCN1C(=O)/C(=C\C=C\c2ccccc2)SC1=S)Nc1cc(F)ccc1F	26.4 µM (active)

Identify measured IC50 associated with Cc1ccccc1OCC(=O)OCC(=O)c1ccc[nH]1 20.3 µM (active)

Quickly give me recorded IC50 for CN1C(c2ccccc2)CC(=NO)CC1c1ccccc1 (configuration not stated) 16.6 µM (active)

Output IC50 of CCc1nnc(N/N=C/c2ccc(-c3ccc([N+](=O)[O-])cc3)o2)n1N 12.6 µM (active)

Give the reported IC50 for this molecule. Cc1ncsc1CCOC(=O)c1ccc([N+](=O)[O-])cc1 7.56 µM (active)

// Input: O=C(Nc1cccc(Cl)c1)Nc1nnc(-c2ccncc2)s1 . Output its IC50 only. > 50 µM (active)

----------
// values below are reported IC50
Target: UniProtKB Q8IL11
Sequence (Q8IL11 whole entry): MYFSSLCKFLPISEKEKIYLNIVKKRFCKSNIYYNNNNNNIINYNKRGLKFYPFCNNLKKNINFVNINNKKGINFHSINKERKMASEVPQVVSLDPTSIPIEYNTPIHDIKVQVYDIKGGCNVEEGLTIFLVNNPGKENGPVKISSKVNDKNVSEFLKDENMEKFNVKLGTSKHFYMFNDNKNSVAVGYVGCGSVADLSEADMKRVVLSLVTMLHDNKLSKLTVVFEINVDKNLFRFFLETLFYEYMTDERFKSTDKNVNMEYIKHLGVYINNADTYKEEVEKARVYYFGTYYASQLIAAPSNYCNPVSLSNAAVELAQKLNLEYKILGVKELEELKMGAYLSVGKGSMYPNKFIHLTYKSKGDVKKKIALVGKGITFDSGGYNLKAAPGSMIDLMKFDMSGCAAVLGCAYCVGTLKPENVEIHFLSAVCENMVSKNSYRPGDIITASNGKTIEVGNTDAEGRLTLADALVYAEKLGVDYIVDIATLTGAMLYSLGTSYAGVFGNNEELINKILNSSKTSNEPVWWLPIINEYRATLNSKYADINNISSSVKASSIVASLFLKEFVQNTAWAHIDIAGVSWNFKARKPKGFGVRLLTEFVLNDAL
Assay: P. falciparum M17LAP inhibitors, primary screen, biochemical, fluorogenic H-Leu-NHMec substrate, 1536-well (AID 1619)
Type: functional
Calls of active or inactive are those of the source.

molecule	target system	IC50
CC(C)Sc1nc(-c2ccccc2)cc(=O)[nH]1	UniProtKB Q8IL11	28.3 µM (active)

In one line, give reported IC50 of the entry CC(=O)NS(=O)(=O)c1ccc(/N=c2\ssc3c2-c2ccc(C)cc2NC3(C)C)cc1 . 2.6 µM (active)

Return IC50 (reported value) for this molecule: CCc1ccc(Nc2nnc(SC3CCOC3=O)s2)cc1 (stereo not given) 2.64 µM (active)

Identify IC50 associated with the molecule COc1cc(NS(=O)(=O)c2ccc(NC(=O)CSC3=NCCS3)cc2)nc(OC)n1 2.12 µM (active)

Hello, please tell me recorded IC50 for this one: Cc1ccc(NC(=O)Cn2nc(C)c3ccccc3c2=O)cc1F 14 µM (active)
